System: K. pneumoniae ATCC 700603
Assay type: cell-based, Klebsiella pneumoniae
Details: ATCC 700603, 18 h
Residues, ends and D or L forms follow the SMILES beside them.
measured parameter: MIC K (µg/mL)

For orientation, consider the following solved cases.
compound: CCCCCCCCCCCCCC(=O)N[C@@H](CCSC)C(=O)N[C@@H](CCCNC(=N)N)C(=O)N[C@@H](CCCNC(=N)N)C(N)=O [compound 50, C14-MRR-NH2] (HELM PEPTIDE1{[CCCCCCCCCCCCCC(=O)[*:2]].M.R.R.[am]}$$$$V2.0)
readout units: µg/mL
MIC K: 128
//
compound: CCCCCCCCCCCCCC(=O)N[C@@H](CCCC)C(=O)N[C@@H](CCCNC(=N)N)C(=O)N[C@@H](CCCNC(=N)N)C(N)=O [compound 66, C14-NleRR-NH2] (HELM PEPTIDE1{[CCCCCCCCCCCCCC(=O)[*:2]].[Nle].R.R.[am]}$$$$V2.0)
readout units: µg/mL
MIC K: 32
//
compound: CCCCCCCCCCCCCC(=O)NCC(=O)N[C@@H](CCCNC(=N)N)C(=O)N[C@@H](CCCNC(=N)N)C(N)=O [compound 30, C14-GRR-NH2]
readout units: µg/mL
MIC K: 256

I: CCCCCCCCCCCCCC(=O)N[C@@H](CO)C(=O)N[C@@H](CCCNC(=N)N)C(=O)N[C@@H](CCCNC(=N)N)C(N)=O [compound 86, C14-SRR-NH2] (HELM PEPTIDE1{[CCCCCCCCCCCCCC(=O)[*:2]].S.R.R.[am]}$$$$V2.0)
II: CCCCCCCCCCCC(=O)N[C@@H](CCSC)C(=O)N[C@@H](CCCNC(=N)N)C(=O)N[C@@H](CCCNC(=N)N)C(N)=O [compound 49, C12-MRR-NH2] (HELM PEPTIDE1{[CCCCCCCCCCCC(=O)[*:2]].M.R.R.[am]}$$$$V2.0)
III: CCCCCCCCCCCCCC(=O)N[C@@H](Cc1ccc(O)cc1)C(=O)N[C@@H](CCCNC(=N)N)C(=O)N[C@@H](CCCNC(=N)N)C(N)=O [compound 102, C14-YRR-NH2] (HELM PEPTIDE1{[CCCCCCCCCCCCCC(=O)[*:2]].Y.R.R.[am]}$$$$V2.0)
IV: CCCCCCCCCCCCCC(=O)N[C@@H](Cc1c[nH]c2ccccc12)C(=O)N[C@@H](CCCNC(=N)N)C(=O)N[C@@H](CCCNC(=N)N)C(N)=O [compound 98, C14-WRR-NH2] (HELM PEPTIDE1{[CCCCCCCCCCCCCC(=O)[*:2]].W.R.R.[am]}$$$$V2.0)
Req: Write the entries in order, lowest recorded MIC K first. Please express your ranking as an ordered list of the labels.
Resp: III, IV, I, II
(III: 32 µg/mL, IV: 64 µg/mL, I: 128 µg/mL, II: 256 µg/mL)

---

Tested on: A. baumannii ATCC BAA-1605
Assay type: cell-based, Acinetobacter baumannii
Details: ATCC BAA-1605, 18 h
Residues, ends and D or L forms follow the SMILES beside them.
measured parameter: MIC A (µg/mL)

compound: CCCCCCCCCCCCCC(=O)N[C@@H](CC(C)C)C(=O)N[C@@H](CCCNC(=N)N)C(=O)N[C@@H](CCCNC(=N)N)C(N)=O [compound 46, C14-LRR-NH2] (HELM PEPTIDE1{[CCCCCCCCCCCCCC(=O)[*:2]].L.R.R.[am]}$$$$V2.0)
measured target: A. baumannii ATCC BAA-1605
value measured: 64

1: CCCCCCCCCCCCCC(=O)N[C@@H](CCC(N)=O)C(=O)N[C@@H](CCCNC(=N)N)C(=O)N[C@@H](CCCNC(=N)N)C(N)=O [compound 78, C14-QRR-NH2] (HELM PEPTIDE1{[CCCCCCCCCCCCCC(=O)[*:2]].Q.R.R.[am]}$$$$V2.0)
2: CCCCCCCCCCCC(=O)N[C@H](C(=O)N[C@@H](CCCNC(=N)N)C(=O)N[C@@H](CCCNC(=N)N)C(N)=O)C(C)C [compound 93, C12-VRR-NH2] (HELM PEPTIDE1{[CCCCCCCCCCCC(=O)[*:2]].V.R.R.[am]}$$$$V2.0)
Req: # return whichever of 1 and 2 has the smaller MIC A Identify your pick by its label.
Resp: 1
(1: 64 µg/mL, 2: 128 µg/mL)
